Hello, the source for this data is paper PMC12040169, in case you need it.

Each entry below carries its reported viability at 28.5 h, 10 µM.
Assay: in vitro
Conditions: human, hela cells, % viability

{"columns": ["compound", "viability at 28.5 h, 10 µM / %"],
 "data": [
  ["Cn1c2ccccc2c2nnc(SCCc3ccccc3)nc21", 109],
  ["COC(=O)c1ccccc1NC(=O)CSCc1ccc(Cl)cc1Cl", 86.2],
  ["CC(=O)NCC1CC(=O)N(c2ccc(Br)cc2)C1 (centres unmarked)", 109],
  ["COc1ccc(-c2nc3cc(OC)ccc3[nH]2)cc1", 90.5],
  ["CCN1CCN(Cc2nc3c(c(=O)n(C)c(=O)n3C)n2CCc2ccccc2)CC1", 110],
  ["O=C(C[C@@H]1O[C@H](CNCc2cccc(Cl)c2)[C@@H](O)[C@H]1O)N1CCCC1", 95],
  ["CN(C)CCN(C)c1cncc(-c2cccc(C(F)(F)F)c2)n1", 115],
  ["CCc1nc2ccc(C(=O)NCCCN3CCCC3=O)cn2c1N(C)C(=O)COc1ccccc1", 98.7]
]}
